PROTOCOL_DESCRIPTION: Cytotoxicity against human U87 cells coexpressing CD4, CxCR4 receptors after 72 hrs
Format: cell-based, U-87MG ATCC
CONDITION: U87 cells coexpressing CD4 and CXCR4 receptors
The entries below are paired with their reported CC50 at 72 h.
MEASUREMENT_KIND: CC50 at 72 h

>>> observed_value("C[C@@H]1CN(C(=O)c2ccccc2)CCN1C(=O)C(=O)c1ccc(N2CCCC2)cc1")
"> 40 µM"
>>> observed_value("C[C@@H]1CN(C(=O)c2ccccc2)CCN1C(=O)C(=O)c1ccc(-c2cc[nH]n2)cc1O")
"> 40 µM"
>>> observed_value("C[C@@H]1CN(C(=O)c2ccccc2)CCN1C(=O)C(=O)c1ccc(-n2cccn2)cc1")
"> 40 µM"
>>> observed_value("C[C@@H]1CN(C(=O)c2ccccc2)CCN1C(=O)C(=O)c1ccc(-c2cccs2)cc1")
"> 40 µM"
>>> observed_value("C[C@@H]1CN(C(=O)c2ccccc2)CCN1C(=O)C(=O)c1ccc(-c2ccncc2)cc1")
"> 40 µM"
>>> observed_value("Cc1cc(-c2ccc(C(=O)C(=O)N3CCN(C(=O)c4ccccc4)C[C@H]3C)c(O)c2)on1")
"> 40 µM"
>>> observed_value("C[C@@H]1CN(C(=O)c2ccccc2)CCN1C(=O)C(=O)c1ccc(-c2ccn[nH]2)cc1Cl")
"> 40 µM"
>>> observed_value("Cc1cc(-c2ccc(C(=O)C(=O)N3CCN(C(=O)c4ccccc4)C[C@H]3C)cc2)on1")
"> 40 µM"
>>> observed_value("COc1cc(-c2ccn[nH]2)ccc1C(=O)C(=O)N1CCN(C(=O)c2ccccc2)C[C@H]1C")
"> 40 µM"
>>> observed_value("CC(=O)c1cc(-c2ccc(C(=O)C(=O)N3CCN(C(=O)c4ccccc4)CC3C)cc2)cs1 (racemic)")
"> 40 µM"
>>> observed_value("C[C@@H]1CN(C(=O)c2ccccc2)CCN1C(=O)C(=O)c1ccc(-c2cncs2)cc1")
"> 40 µM"
>>> observed_value("Cc1nc(-c2ccc(C(=O)C(=O)N3CCN(C(=O)c4ccccc4)C[C@H]3C)cc2)cs1")
"> 40 µM"
>>> observed_value("C[C@@H]1CN(C(=O)c2ccccc2)CCN1S(=O)(=O)c1ccc(-c2ccccn2)s1")
"> 40 µM"
>>> observed_value("C[C@@H]1CN(C(=O)c2ccccc2)CCN1S(=O)(=O)c1ccc(-c2cnco2)s1")
"> 40 µM"
>>> observed_value("CC1CN(C(=O)c2ccccc2)CCN1C(=O)C(=O)c1ccc(-n2cncn2)cc1 (racemic)")
"> 40 µM"
>>> observed_value("COc1ccnc2[nH]cc(C(=O)C(=O)N3CCN(C(=O)c4ccccc4)C[C@H]3C)c12")
"> 40 µM"
>>> observed_value("C[C@@H]1CN(C(=O)c2ccccc2)CCN1C(=O)C(=O)c1ccc(-c2cnco2)cc1")
"> 40 µM"
>>> observed_value("CC1CN(C(=O)c2ccccc2)CCN1C(=O)C(=O)c1ccc(-c2ccn(C)n2)cc1 (racemic)")
"> 40 µM"

###

PROTOCOL_DESCRIPTION: Inhibition of HIV1 3B recombinant gp120/sCD4 binding interaction by ELISA
MEASUREMENT_KIND: IC50 (nM)

>>> observed_value("COc1ncc(OC)c2c(C(=O)C(=O)N3CCN(C(=O)c4ccccc4)CC3)c[nH]c12")
2400
>>> observed_value("C[C@@H]1CN(C(=O)c2ccccc2)CCN1C(=O)C(=O)c1ccc(-c2cnco2)c(Cl)c1")
236
